Please respond with reported melting point for every item in the list.

Q) For Nc1nc(Nc2ccccc2)sc1C(=O)c1ccccc1[N+](=O)[O-] , what is its reported melting point?
A) 117 to 119 °C

Q) Quick one: Nc1nc(Nc2ccccc2)sc1C(=O)c1ccc(O)c(O)c1
A) 222 to 224 °C

Q) What about this compound? COC(=O)c1sc(Nc2ccccc2)nc1N
A) 173 to 174 °C

Q) Next: Nc1nc(Nc2ccccc2)sc1C(=O)N1CCOCC1
A) 212 to 213 °C

Q) And what about the compound Nc1nc(Nc2ccccc2)sc1C(=O)Nc1ccccc1 ?
A) 75 °C

Q) Thanks! And Nc1nc(Nc2ccccc2)sc1C(=O)c1ccc2ccccc2c1 ?
A) 227 to 229 °C

Q) Record: Nc1nc(Nc2ccccc2)sc1C(=O)c1ccc(C(F)(F)F)cc1
A) 201 to 205 °C

Q) Now consider Nc1nc(Nc2ccc(Br)cc2)sc1C(=O)C1CC1 and answer again.
A) 204 to 206 °C

Q) Query Nc1nc(Nc2ccccc2)sc1-c1ccc([N+](=O)[O-])cc1 next
A) 217 to 219 °C

Q) Next entry: CCN(CC)c1ccc(C(=O)c2sc(Nc3ccccc3)nc2N)cc1
A) 214 to 216 °C

Q) Same question for Nc1nc(Nc2ccccc2)sc1C(=O)c1c(Cl)cccc1Cl please.
A) 245 to 246 °C
